Examples of compounds with documented Percent Change, Diarrhea Incidence follow.
- Tested on: diarrhea induced by prostaglandin E2 (PGE2)
- assay: Inhibition of PGE2 diarrhea in mice
- Assay type: in vivo
- condition set: 5 mg/kg S.C., 15 minutes prior to i.p. PGE2
assay metric: Percent Change, Diarrhea Incidence (%)

1) CCCCCCCC[C@@H]1OCO[C@H]1CCCCCCCC(=O)O (relative stereo) :: 0
2) CCCCCCCC[C@@H]1OS(=O)O[C@@H]1CCCCCCCC(=O)OC (relative stereo) :: -14
3) CCCCCCC#C[C@H]1CCC[C@@H]1OCCCCCC(=O)O [7-oxa-13-prostynoic acid, reference compound] :: -100

---

- Test system: prostaglandin synthesis
- assay: Inhibition of prostaglandin synthesis (arachidonic acid-dependent formation of adrenochrome from L-epinephrine)
- Type: biochemical
- condition set: read-out: ID50, inhibition of prostaglandin synthesis
- Excerpt: The prostaglandin synthesis inhibition method as employed is reported by Takeguchi and Sih, Prastaglandins, 2, 169, 1972. The principle entails the arachidonic acid-dependent formation of adrenochrome from L-epinephrine during prostaglandin biosynthesis. Indomethacin, phenylbutazone and aspirin were used as reference compounds.
pIC50: −log10 of the molar value.
Quick reference for pIC50 among some compounds
assay metric: pIC50

1) CCCCC1C(=O)N(c2ccccc2)N(c2ccccc2)C1=O [Phenylbutazone, reference compound] :: 3.06
2) CCCCCCCC[C@@H]1SC(=S)S[C@H]1CCCCCCCC(=O)O (relative stereo) [Compound E] :: 3.41
3) COc1ccc2c(c1)c(CC(=O)O)c(C)n2C(=O)c1ccc(Cl)cc1 [Indomethacin, reference compound] :: 5.70
4) CC(=O)Oc1ccccc1C(=O)O [Aspirin, reference compound] :: 2.43
